tested on: CCRF-CEM leukemia; assay: NCI tumour cell line growth inhibition, 48 h; in the data active = GI50 below about 0.43 µM; inactive = the rest
One label from this list, please: yes (1) for active, no (0) for inactive

CC(=O)OC1Oc2ccccc2-c2oc(=O)c(-c3cc4ccccc4oc3=O)cc21 (centres undefined) :: no (0)
Cc1[nH]nc2c1N=C(c1ccccc1Cl)c1cc([N+](=O)[O-])ccc1N2 :: no (0)
COc1ccccc1/C=C/C(=O)/C=C/c1ccccc1OC :: no (0)
O=C1CCS/C(=N\S(=O)(=O)c2ccc(N3N=C4c5ccccc5CC4C3c3cccs3)cc2)N1C(=O)c1ccccc1 (centres undefined) :: no (0)
C1COCCOCCOCCOCCO1.CC(=O)[CH-]C(C)=O.CC(=O)[CH-]C(C)=O.CC(=O)[CH-]C(C)=O.[V] :: no (0)

**Q:** Which outcome was assigned to CCOC(=O)c1cc(C(=O)c2cc(OC)c(OC)c(OC)c2)n2ccccc12 in this test?
**A:** yes (1)

**Q:** Which outcome was assigned to C1=Nc2ccccc2C=Nc2ccccc2C=Nc2ccccc2C=Nc2ccccc21.[Cl-].[Pt+2] in this test?
**A:** no (0)

**Q:** Which outcome was assigned to NC1CCC(N[C@@H]2C[C@H]2c2ccccc2)CC1 (some centres undefined) in this test?
**A:** no (0)

**Q:** Which outcome was assigned to COc1ccc2c(c1)/C(=N/OC(C)=O)c1c-2c(=O)[nH]c2ccccc12 in this test?
**A:** no (0)

Where these numbers come from: PubChem BioAssay (NCI)
